Target: T1, human LILRB4 (human, UniProt Q8NHJ6 22-448)
T1 construct: whole, on cells; also called hLILRB4
Assay: FACS, 293F-hLILRB4 cells
recordedMetric: Max MFI (MFI)
Give bare numbers, in MFI.

Examples from the recorded data:
[
  {
    "binder": "ch36-F4-H1-D9 (antibody, V domains shown) VH: EVKLLESGGGLVQPGGSLKLSCAASGFDFSRYWMIWVRQAPEKGLEWIGEINPDSSTINYTPSLKDKFIISRDNAKNTLYLQMSKVRSEDTALYYCARPYYRYDVGYFDVWGAGTTVTVSS VL: DIVMTQAPKVLLVSAGDRVTISCKASQSVSNAVVWYQQKPGQSPKLLIFYASNRYTGVPDRFTGSGYGTDFTFSISTVQAEDLAVYFCQQDYSSPWTFGGGTKLEIK",
    "Max MFI, MFI": 48200
  },
  {
    "binder": "ch43-D12-F3-G11 (antibody, V domains shown) VH: EVQVVESGPGLVAPSQSLSITCTVSGFSLTSYGVSWVRQPPGKGLEWLGVIWADGSTNYHSALLSRLSISKDNSKSQVFLKLNSLQTDDTATYYCAKGHWDGFAYWGQGTLVAVSA VL: DIVLTQSPAIMSTSPGEKVTLTCSASSSITSSYLYWYQQKPGSSPKLWIYSTSNLASGVPARFSGSGSGTSYYLTISSMEAEDAASYFCHQWSSYPPTFGGGTKLELK",
    "Max MFI, MFI": 48000
  },
  {
    "binder": "ch8-B3-F6-H8 (antibody, V domains shown) VH: EVKVIESGGGLVQPGGSLKLSCAASGFDFSRYWMSWVRQAPGKGLEWIGEINPDSSAINYTPSLKDKFIISRDNAKNTLYLQMSKVRSEDTALYYCATSMTMDYWGQGTSVTVSS VL: DIVMTQSPSSMYASLGERVTITCKASQDIKSYLSWYQQKPWKSPKTLIYYATSLADGVPSRFSGSGSGQDYSLTISSLESDDTATYYCLQHGESPYTFGGGTKLEK",
    "Max MFI, MFI": 48500
  },
  {
    "binder": "ch10-H9-E3-G3 (antibody, V domains shown) VH: EVQRVESGGGLVQPGGSRKLSCAASGFTFSSFGMHWVRQAPEKGLEWVAYISSGSSAMYYADTVKGRFTISRDNPKNTLFLQMTSLRSEDTAMYYCARSDGKGAMDYWGQGTSVTVSS VL: DIQMTQTTSSLSASLGDRVTISCRASQDISNYLNWYQQKPDGTVKLLVYYTSRLHSGVPSRFSGSGSGTDYSLTISNLEQEDIATYFCQQGNTLPWTFGGGTKLEIK",
    "Max MFI, MFI": 45200
  }
]

Now examine the next entry.
Using the record for ch25-G9-G4-C12 (antibody, V domains shown) VH: EVQLVESGGDLVKPGGSLKLSCAASGFTFSSHGMSWVRQTPDKRLEWVATINSGGYYTYYPDSVKGRFTISRDNAKNTLYLQMSSLKSEDTAMYYCARGQLGNWYFDVWGAGTTVTVSS VL: DIVMTQSPAIMSASPGEKVTITCSASSSVSYMHWFQQKPGTSPKLWIYSTSNLASGVPARFSGSGSGTSYSLTISRMEAEDAATYYCQQRSSYPLTFGAGTKLELK , report its Max MFI. 43300
